Tested on: Pseudomonas aeruginosa
EXPERIMENTAL_DETAILS: Antibacterial activity against Pseudomonas aeruginosa by two fold serial dilution method
Assay type: functional
Exercise: state measured MIC for each of the molecules provided.
Numbers only, in µg/mL.

- COc1ccc2cc3[n+](cc2c1OCCN(CCn1cncn1)Cc1ccc(F)cc1F)CCc1cc2c(cc1-3)OCO2.[Cl-]: 8

Record MIC for all entries; do not skip any.
1. Clc1ccc(CN(CCBr)CCn2cncn2)cc1
2. COc1ccc2cc3[n+](cc2c1OCCN(CCn1cncn1)Cc1ccc(Cl)c(Cl)c1)CCc1cc2c(cc1-3)OCO2.[Cl-]
3. Clc1ccc(CN(CCBr)CCn2cncn2)c(Cl)c1
4. Fc1ccc(CN(CCBr)CCn2cncn2)c(F)c1

Result:
1. 256
2. 16
3. 128
4. 128

Record MIC for all entries; do not skip any.
1. COc1ccc2cc3[n+](cc2c1OCCN(CCn1cncn1)Cc1ccccc1F)CCc1cc2c(cc1-3)OCO2.[Cl-]
2. COc1ccc2cc3[n+](cc2c1OCCN(CCn1cncn1)Cc1cccc(Cl)c1)CCc1cc2c(cc1-3)OCO2.[Cl-]
3. CCn1cc(C(=O)O)c(=O)c2cc(F)c(N3CCNCC3)cc21 [NORFLOXACIN]

Result:
[8, 32, 16]

Record MIC for all entries; do not skip any.
1. COc1ccc2cc3[n+](cc2c1OCCN(CCn1cncn1)Cc1ccc(Cl)cc1)CCc1cc2c(cc1-3)OCO2.[Cl-]
2. COc1ccc2cc3[n+](cc2c1OCCN(CCn1cncn1)Cc1ccccc1Cl)CCc1cc2c(cc1-3)OCO2.[Cl-]

Result:
[16, 32]
